assay: soluble on expression in E. coli; label from the status in PepcDB or PDB records
Experimental readout: soluble on expression in E. coli

AATITTSGTVLPTVTVAGHRAAIDEAPPLYKGGQVGSGARMGVLGNTAVMDTPFSVTSYSAQVIENNQARSVADIAAMDPSVRMSSARSNINEDLTMRGFSVSSADFALNGLFGLTPYWRAPLESIERVEVIKGPSAALFGMAPGSSVGGVVNLVPKRAGDTP = not soluble
MPQILVDADACPVKAEIKQVAKEFQLEVTFVASFNHYSVNTNGENWIFVDTGKESADMRMMNLAKKGDIIVTQDIGLASILLAKGTFVFSNRGELYREEEMSLMLDIRYRHAKERQQGKYSKGPKAMSDQDRSLFKDRLTTFLQNKLEHHHHHH = soluble
MDDIRCAIIIDPDLPPGVIANTAAVLAMSLGKRHPELVGQDLPDARGQPRQGITTVPIPVLKGGADQLRALRAAASETGLTLVELTSATRFTRSYQEYAAALAATPEEMVEYQGLALCGPGKRVRQLTGSLGLLRLEHHHHHH = not soluble
MSGASSITATEPYRDVQIRPAVAPDVARVAAIDEAATGEAKPRYWQSLFENFSQARAGCRAFLIAELKGEVVGFICGEVRDFEFGAESCGWVFALTVDPAIRVNSIGTQLFEEICQIFTQAGVRKVRTMIEHDNQLVMAFFRSQGLMVGRFIGMEKNLD = soluble

* * *

experiment: soluble on expression in E. coli; label from the status in PepcDB or PDB records
Experimental readout: soluble on expression in E. coli

MDCNGSGGSSDDDKPLHHDGGVRMKFFRSVGEVFGYSPFRSLAQHARMCGRAVGLLQQQFEALRRGNYEEVEELREEIDELEHHADQIKEEIRGNVTKSLMLPVDRHDLLEFLKVQDDILNNCEHVGHMVTFRKVSAPEDVWDEFLVLLSKLMEIVNNYEEMVERIMQLVETSFSKKEVNRALEYVPIIEQLEHECDLIQIGLHTKLFNLENSNPLDIQLMVTWVVHLGYVANAAARASDRFRIMILGR = soluble
MGSDKIHHHHHHMGNILWVASYPKSGNTWVRAFLENYIQNAEQGVDINTMHKISTAESAAHRFQARLQDGRKTTDLSLDEICALRPAVQADIAMQAHGTTFVKTHNYLGTYKEYPLHNSSVTSGSIYIVRNPLDVTVSMANYFGYSIDETIAYMAEEMTGTPNEPENVPQVITSWSMHVSSWTQNPEEAKLVLRYEDILDDPKKVFRKIESFLGLKKDPNRLKNAIKHSSFAQLKAQESKRGFVEKHENAKSFFRQGSKNQWRQVLSDEQVAKIVEHHGEQMARFKYLPGKLR = not soluble
MRYFIVAGEASGDLHASNLVRALKEHDPEAVFAFMGGDFLSEATGERPIFHYREVAFMGFIPVLTHLGVIRRAGEHVQEQMRAFNPDVVIAVDYPGFNMRYVLPFVREELGKPIVYYISPKVWAWKSWRIKTLKKYVDLMLCILPFEKDFFAGHDFPVIYVGNPCYDAVKQHMRPTIEEQERSAKDSRQVALLCGSRLLEVKENLPVMLRVMKQFPDYRPVIAGAPGLTIQDYTPFLPDDSIPVVFGRTYEILRESKAALVTSGTATLETALIGTPQVVCYYIRGGRLTNLIFKYCFGTPFISLTNLIAGRAVVPELFGALFTEKRLAASLSPLLDASSAERQAQLSGYDSIRKSIGTDNTSDKAARHIIARFAKDNARPSSL = not soluble
MSKRLPPLNALRVFDAAARHLSFTRAAEELFVTQAAVSHQIKSLEDFLGLKLFRRRNRSLLLTEEGQSYFLDIKEIFSQLTEATRKLQARSAKGALTVSLLPSFAIHWLVPRLSSFNSAYPGIDVRIQAVDRQEDKLADDVDVAIFYGRGNWPGLRVEKLYAEYLLPVCSPLLLTGEKPLKTPEDLAKHTLLHDASRRDWQTYTRQLGLNHINVQQGPIFSHSAMVLQAAIHGQGVALANNVMAQSEIEAGRLVCPFNDVLVSKNAFYLVCHDSQAELGKIAAFRQWILAKAAAEQEKFRFRYEQ = soluble
MVCFASLFEEVSMHTCPLCHNQHTRHYFEDKHREYLQCEQCYLVFVNPDQRLDAETEKAHYDLHENNPEDIGYRRFLSRIADPITERISPQSNGIDFGCGPGPTLSLMLEEAGHNMALYDIYYHPDTAVLEKQYDFMTATEVIEHLYHPDVVWKQWLNLVKPGGWIGLMTKMVIDVEAFKSWHYKNDPTHVVFFSRDTFQFLAERDKLELEFIGNDVILLRKTQLEHHHHHH = soluble

Just for reference, the DeepSol protein solubility set is where these values come from.
